Cited source: PubChem BioAssay (NCI)

Below is a list of entries, each paired with its recorded TGI value.
system: OVCAR-4 ovarian; test: NCI tumour cell line growth inhibition, 48 h

{"Molecule": "O=C(O)c1cc(=O)c2c(OCC(O)COc3cccc4oc(C(=O)O)cc(=O)c34)cccc2o1", "Readout Name": "TGI", "Reported Result": "> 100 µM"}
{"Molecule": "S=C(NCCNC(=S)[S][Sn]([c]1ccccc1)([c]1ccccc1)[c]1ccccc1)[S][Sn]([c]1ccccc1)([c]1ccccc1)[c]1ccccc1", "Readout Name": "TGI", "Reported Result": "0.0805 µM"}
{"Molecule": "O=C(c1nc2ccccc2[nH]c1=O)C(O)c1ccco1 (stereo not given)", "Readout Name": "TGI", "Reported Result": "> 100 µM"}
{"Molecule": "CCc1nc(N)nc(N)c1-c1ccc2nnn(O)c2c1", "Readout Name": "TGI", "Reported Result": "> 100 µM"}

Now let's try a different one.
Tell me the measured TGI of CCOC(=O)C(Cc1cn(C(C)=O)c2ccccc12)P(=O)(OCC)OCC (stereo not given) , please.
> 100 µM
